- target_system: Avi-KRAS G12D/Q25A (1-169) GppNHp/3×FLAG-PI3KCA (157-299) (Homo sapiens, UniProt P01116, G12D/Q25A)
- Construct: Avi-KRAS G12D/Q25A (1-169) GppNHp
- Sequence (P01116 1-169 isoform P01116-2 G12D/Q25A limits assumed): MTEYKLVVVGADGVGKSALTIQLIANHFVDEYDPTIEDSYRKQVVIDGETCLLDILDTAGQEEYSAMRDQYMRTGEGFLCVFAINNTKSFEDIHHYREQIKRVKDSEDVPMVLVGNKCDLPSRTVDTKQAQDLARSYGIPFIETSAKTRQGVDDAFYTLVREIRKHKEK
- test_protocol: HTRF PI3KCA-KRAS G12D/Q25A-GppNHp disruption assay
- Assay type: biochemical
- condition_notes: 1 h incubation
pIC50: −log10 of the molar value.
measured_metric: pIC50

structure: CN(c1nc(OCC2(CN3CCOCC3)CC2)nc2c(F)c(-c3ccc(F)c4sc(N)nc34)c(C(F)(F)F)cc12)[C@@H]1CCNC1
result: 5.00 to 6.00
//
structure: Nc1nc2c(-c3c(C(F)(F)F)cc4c(N5CC6CCC(C5)N6)nc(OCC5(CN6CC[C@@H](F)C6)CC5)nc4c3F)ccc(F)c2s1
result: 6.00 to 7.00
//
structure: CN1CCC[C@H]1COc1nc(NC2CNC2)c2cc(Cl)c(-c3ccc(F)c4sc(N)nc34)c(F)c2n1
result: 5.00 to 6.00
//
structure: CN1CCC[C@H]1COc1nc(N2CCN(C(=O)CN)[C@@H](CC#N)C2)c2cc(Cl)c(-c3ccc(F)c4sc(N)nc34)c(F)c2n1
result: 5.00 to 6.00
//
structure: CO[C@@H]1C[C@@H](COc2nc(NC3CNC3)c3cc(Cl)c(-c4ccc(F)c5sc(N)nc45)c(F)c3n2)N(C)C1
result: 4.52 to 5.00
//
structure: CO[C@@H]1C[C@@H](COc2nc(NCCN)c3cc(Cl)c(-c4ccc(F)c5sc(N)nc45)c(F)c3n2)N(C)C1
result: 5.00 to 6.00
//
structure: NCCNc1nc(OCC23CCCN2CCC3)nc2c(F)c(-c3ccc(F)c4sc(N)nc34)c(Cl)cc12
result: 5.00 to 6.00
